Biological target: Cathepsin B (Homo sapiens)
Experiment: Cathepsin B enzyme assay
Settings: Cat B (μM), Ki by Morrison equation; pH 6.0, substrate Z-Phe-Arg-Amc
REPORTED METRIC: Ki (µM)
Quick reminder: number only, in µM, skip the unit.

Query: Annotate the compound CCC(C)C(NC(=O)C(=O)C(C)NC(=O)C(Cc1ccc(C(F)(F)F)cc1)NC(=O)Cc1ccccc1)C(=O)NC(C)(C)C(=O)O (stereo not shown) [PHELIX168] with its measured Ki.
Result: 0.519

Query: Answer with the recorded Ki of CCC(C)C(NC(=O)C(=O)C(C)NC(=O)C(Cc1cccc(C(F)(F)F)c1)NC(=O)Cc1ccccc1)C(=O)NC(C)(C)C(=O)O (stereo not shown) [PHELIX170] only.
Result: 0.022

Query: Query Ki for CC(NC(=O)C(Cc1ccccc1)NC(=O)c1ccccc1)C(=O)C(=O)NC(Cc1ccccc1)C(=O)NC(C)(C)C(N)=O (stereo not shown) [PHELIX223]
Result: 0.246

Query: Determine its reported Ki: CC(NC(=O)C(Cc1ccc2ccccc2c1)NC(=O)Cc1ccccc1)C(=O)C(=O)NC(Cc1ccccc1)C(=O)NC(C)(C)C(N)=O (stereo not shown) [PHELIX206]
Result: 0.12

Query: # return recorded Ki for input CCC(C)C(NC(=O)C(=O)C(C)(C)NC(=O)Cc1ccccc1)C(=O)NC(C)(C)C(=O)O (stereo not shown) [PHELIX139]
Result: 1130

Query: Check the records and state Ki for CCC(C)C(NC(=O)C(=O)C(C)NC(=O)C(Cc1ccccc1)NC(=O)Cc1ccccc1)C(=O)NC(C)(C)C(=O)OC (stereo not shown) [PHELIX179]
Result: 17.8

Query: Give the reported value of Ki for this record: CC(C)CC(NC(=O)C(=O)C(C)NC(=O)C(Cc1ccccc1)NC(=O)Cc1ccccc1)C(=O)NC(C)(C)C(N)=O (stereo not shown) [PHELIX214]
Result: 5.79
